Target: Adenosine receptor A1 (Homo sapiens)
Assay: Inverse agonist activity at human adenosine A1 receptor expressed in CHO cells assessed as cAMP accumulation at 10 uM measured after 150 mins in presence of [3H]cAMP by scintillation counting method relative to control
Assay type: functional, cell-based
Quick reference: Activity of the listed items.
All answers are understood in %, so give the number only.

// below: answered compounds
| Smiles | Assayed System | Unit Tag | Activity |
| --- | --- | --- | --- |
| Nc1nc(NCc2cccs2)nc2sc(-c3cccs3)nc12 | Adenosine receptor A1 (Homo sapiens) | % | 97 |
| Nc1nc(NCc2cccnc2)nc2sc(-c3ccco3)nc12 | Adenosine receptor A1 (Homo sapiens) | % | 96 |
| Nc1nc(NCCc2ccco2)nc2sc(-c3ccco3)nc12 | Adenosine receptor A1 (Homo sapiens) | % | 95 |
| COc1ccccc1CNc1nc(N)c2nc(-c3cccs3)sc2n1 | Adenosine receptor A1 (Homo sapiens) | % | 99 |
| Nc1nc(NCCc2cccs2)nc2sc(-c3ccco3)nc12 | Adenosine receptor A1 (Homo sapiens) | % | 100 |
| Nc1nc(NCc2cnccn2)nc2sc(-c3ccco3)nc12 | Adenosine receptor A1 (Homo sapiens) | % | 102 |

Q. Return Activity (reported value) for this compound: Nc1nc(NCCc2cccnc2)nc2sc(-c3ccco3)nc12
A. 102

###

Target: Adenosine receptor A2b (Homo sapiens)
Assay: Inverse agonist activity at human adenosine A2B receptor expressed in CHO cells assessed as cAMP accumulation at 10 uM measured after 150 mins in presence of [3H]cAMP by scintillation counting method relative to control
Format: functional, cell-based
Value Kind: Activity (%)
All answers are understood in %, so give the number only.

| Smiles | Assayed System | Result |
| --- | --- | --- |
| Nc1nc(NCc2ccncc2)nc2sc(-c3ccco3)nc12 | Adenosine receptor A2b (Homo sapiens) | 103 |
| COc1ccccc1CNc1nc(N)c2nc(-c3cccs3)sc2n1 | Adenosine receptor A2b (Homo sapiens) | 106 |
| Nc1nc(NCc2cccs2)nc2sc(-c3ccco3)nc12 | Adenosine receptor A2b (Homo sapiens) | 99 |
| Nc1nc(NCc2cccnc2)nc2sc(-c3ccco3)nc12 | Adenosine receptor A2b (Homo sapiens) | 97 |
| Nc1nc(NCc2ccccn2)nc2sc(-c3ccco3)nc12 | Adenosine receptor A2b (Homo sapiens) | 98 |
| Nc1nc(NCCc2cccs2)nc2sc(-c3ccco3)nc12 | Adenosine receptor A2b (Homo sapiens) | 99 |
| Nc1nc(NCc2ccsc2)nc2sc(-c3ccco3)nc12 | Adenosine receptor A2b (Homo sapiens) | 99 |
| Nc1nc(NCCc2ccco2)nc2sc(-c3ccco3)nc12 | Adenosine receptor A2b (Homo sapiens) | 103 |
| Nc1nc(NCc2cccs2)nc2sc(-c3cccs3)nc12 | Adenosine receptor A2b (Homo sapiens) | 96 |
| Nc1nc(NCc2ccco2)nc2sc(-c3ccco3)nc12 | Adenosine receptor A2b (Homo sapiens) | 101 |

Q. Return Activity (reported value) for this compound: Nc1nc(NCc2cnccn2)nc2sc(-c3ccco3)nc12
A. 102

Q. Return Activity (reported value) for this compound: Nc1nc(NCCc2cccnc2)nc2sc(-c3ccco3)nc12
A. 97

###

Target: UniProt P29275
Sequence (P29275 whole entry): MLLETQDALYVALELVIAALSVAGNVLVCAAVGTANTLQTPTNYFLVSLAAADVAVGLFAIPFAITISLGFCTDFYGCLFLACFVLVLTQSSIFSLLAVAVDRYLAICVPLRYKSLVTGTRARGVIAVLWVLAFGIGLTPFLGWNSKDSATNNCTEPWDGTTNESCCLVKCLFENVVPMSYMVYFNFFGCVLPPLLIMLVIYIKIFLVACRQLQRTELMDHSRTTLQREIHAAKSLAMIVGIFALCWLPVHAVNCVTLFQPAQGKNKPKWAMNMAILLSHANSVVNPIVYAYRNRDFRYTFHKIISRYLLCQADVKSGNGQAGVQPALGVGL
Assay: Antagonist activity at human adenosine A2B receptor expressed in CHO cells assessed as inhibition of NECA-stimulated cAMP accumulation measured after 150 mins in presence of [3H]cAMP by scintillation counting method
Value Kind: IC50

// below: answered molecules
| Smiles | IC50 |
| --- | --- |
| COc1cccc(CNc2nc(N)c3nc(-c4ccc(C)o4)sc3n2)c1 | 0.12 µM |
| Cc1ccc(-c2nc3c(N)nc(NCc4cccs4)nc3s2)o1 | 0.091 µM |

Q. Lab note: UniProt P29275 assay, enter IC50 for COc1ccccc1CNc1nc(N)c2nc(-c3ccc(C)o3)sc2n1 here
A. 0.389 µM

Q. Lab note: UniProt P29275 assay, enter IC50 for COc1ccccc1CNc1nc(N)c2nc(-c3cccs3)sc2n1 here
A. 4.57 µM

Q. Lab note: UniProt P29275 assay, enter IC50 for Nc1nc(NCc2cccs2)nc2sc(-c3cccs3)nc12 here
A. 0.547 µM

Q. Lab note: UniProt P29275 assay, enter IC50 for COc1cccc(CNc2nc(N)c3nc(-c4cccs4)sc3n2)c1 here
A. 2.77 µM
